Entries and their Kd values follow.
Target: Ras-related protein Rab-6A (Homo sapiens, UniProt P20340); further: in the data inactive means no Kd found up to 30 µM
Sequence (P20340 whole entry): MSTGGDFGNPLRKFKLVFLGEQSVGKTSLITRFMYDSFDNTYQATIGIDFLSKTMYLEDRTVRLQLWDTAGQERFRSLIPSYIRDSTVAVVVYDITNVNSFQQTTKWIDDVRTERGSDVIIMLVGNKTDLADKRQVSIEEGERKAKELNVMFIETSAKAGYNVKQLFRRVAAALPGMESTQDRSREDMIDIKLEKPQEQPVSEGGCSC
Activity calls are given as the source filed them.

Field: example entries. Status: answers known.
CCc1nc(C(N)=O)c(Nc2ccc(N3CCC(N4CCN(C)CC4)CC3)c(OC)c2)nc1NC1CCOCC1 [GILTERITINIB]
> 30 µM (inactive)
O=C(NC[C@H](O)CO)c1ccncc1Nc1ccc(I)cc1F [PIMASERTIB]
> 30 µM (inactive)

Look up and state reported Kd for Cc1cc(-c2cc(OC(=O)c3ccccc3)ccc2Cl)cc2nnc(Nc3ccc(OCCN4CCCC4)cc3)nc12 [TG100-801] > 30 µM (inactive)

Look up and state reported Kd for S=C(NCc1ccc2c(c1)OCO2)N1CCN(c2ncnc3c2oc2ccccc23)CC1 [AMUVATINIB] > 30 µM (inactive)
